Below is a list of entries, each paired with its recorded IC50 value.
# SYSTEM UNDER TEST: Alpha glucosidase (Homo sapiens, UniProt O43451+P10253+P14410+Q2M2H8)
# PROTOCOL SUMMARY: Inhibition of alpha-glucosidase (unknown origin) using p-nitrophenyl-alpha-d-glucopyranoside as substrate preincubated for 15 mins followed by substrate addition measured after 30 mins by spectrophotometric analysis
# Format: protein assay

Known IC50 results, listed for orientation:
Task: Notebook entry, Alpha glucosidase (Homo sapiens, UniProt O43451+P10253+P14410+Q2M2H8) assay: IC50 of Cc1ccc(-c2cc(-c3cccc(Br)c3)nc(SCc3ccc(F)cc3)n2)cc1 = ?
Result: 19 to 38 µM

Task: Notebook entry, Alpha glucosidase (Homo sapiens, UniProt O43451+P10253+P14410+Q2M2H8) assay: IC50 of Clc1ccc2sc(SCc3cn(Cc4ccccc4)nn3)nc2c1 = ?
Result: 20 to 61 µM

Task: Notebook entry, Alpha glucosidase (Homo sapiens, UniProt O43451+P10253+P14410+Q2M2H8) assay: IC50 of Brc1ccc(Cn2cc(CSc3nc4ccccc4s3)nn2)cc1 = ?
Result: 20 to 61 µM

Task: Notebook entry, Alpha glucosidase (Homo sapiens, UniProt O43451+P10253+P14410+Q2M2H8) assay: IC50 of Clc1ccccc1CSc1nc(-c2ccc(Br)cc2)cc(-c2ccc(Br)cc2)n1 = ?
Result: 19 to 38 µM

Task: Notebook entry, Alpha glucosidase (Homo sapiens, UniProt O43451+P10253+P14410+Q2M2H8) assay: IC50 of Fc1ccccc1Cn1cc(CSc2nc3cc(Cl)ccc3s2)nn1 = ?
Result: 20 to 61 µM

Task: Notebook entry, Alpha glucosidase (Homo sapiens, UniProt O43451+P10253+P14410+Q2M2H8) assay: IC50 of Fc1cccc(CSc2nc(-c3ccc(Br)cc3)cc(-c3ccc(Br)cc3)n2)c1 = ?
Result: 19 to 38 µM

Task: Notebook entry, Alpha glucosidase (Homo sapiens, UniProt O43451+P10253+P14410+Q2M2H8) assay: IC50 of CC(C)(C)c1ccc(Cn2cc(CSc3nc4cc(Cl)ccc4s3)nn2)cc1 = ?
Result: 20 µM

Task: Notebook entry, Alpha glucosidase (Homo sapiens, UniProt O43451+P10253+P14410+Q2M2H8) assay: IC50 of Clc1ccc2sc(SCc3cn(Cc4ccccc4Br)nn3)nc2c1 = ?
Result: 20 to 61 µM

Task: Notebook entry, Alpha glucosidase (Homo sapiens, UniProt O43451+P10253+P14410+Q2M2H8) assay: IC50 of Cc1ccc(-c2cc(-c3cccc(Br)c3)nc(SCc3cccc(F)c3)n2)cc1 = ?
Result: 19 to 38 µM

Task: Notebook entry, Alpha glucosidase (Homo sapiens, UniProt O43451+P10253+P14410+Q2M2H8) assay: IC50 of Cc1ccc(-c2cc(-c3cccc(Br)c3)nc(SCc3ccccc3Cl)n2)cc1 = ?
Result: 19 to 38 µM

Next up:
Task: Notebook entry, Alpha glucosidase (Homo sapiens, UniProt O43451+P10253+P14410+Q2M2H8) assay: IC50 of Cc1ccc(-c2cc(-c3ccc(Br)cc3)nc(SCc3ccccc3Br)n2)cc1 = ?
Result: 19 to 38 µM

* * *

# PROTOCOL SUMMARY: Inhibition of yeast alpha-glucosidase using p-nitrophenyl-alpha-d-glucopyranoside as substrate preincubated for 15 mins followed by substrate addition measured after 20 mins
# Set-up: species or system Saccharomyces cerevisiae
Below is a list of entries, each paired with its recorded IC50 value.

Task: Need IC50, item NNC(=O)Cn1c(Cc2ccc(Cl)cc2Cl)nc2ccc([N+](=O)[O-])cc21
Result: 10 µM

Task: Need IC50, item Oc1ccc(-c2nc3ccc(N4CCOCC4)cc3[nH]2)cc1O
Result: 3.4 to 20 µM

Next up:
Task: Need IC50, item COc1cc(-c2nc3ccc(N4CCN(C)CC4)cc3[nH]2)ccc1O
Result: 2.2 to 21 µM
